# PROTOCOL_DETAILS: M. tuberculosis H37Rv growth inhibitors, H37Rv strain (AID 1626);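 also: bacteria incubated seven days before Alamar blue readout; 0% = bacteria only wells and 100% = bacteria with antibiotic wells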
# CONDITIONS: hits give high values, concentration not given here
About 2,000 (0.91%) of roughly 220,000 compounds were called active. About 2% were inconclusive and are not listed. Only a sample is shown. Entries with a potency or affinity are not part of this list.
QUANTITY: inhibition (%)
Just the number in %, nothing appended.

Example cases with answers are listed next.
MOLECULE | inhibition / %
COCCNC(=O)C(c1ccc(C)o1)N(C(=O)Cn1nnc2ccccc21)c1ccccc1 (stereo unspecified) | 4.15
COc1ccc(S(=O)(=O)N2C(=O)/C(=C3\SC(N)=NC3=O)c3ccccc32)cc1 | -3.28
Cc1ccc(C(c2sc3nc(C)nn3c2O)N2CCOCC2)cc1 (stereo unspecified) | -3.42
Cc1[nH]c2ccccc2c1-c1csc(NC(=O)CN2CCOCC2)n1 | 1.74
COc1ccc(/C=C/c2nc(-c3ccccc3O)n(-c3ccccc3)n2)cc1 | -4.12
Cc1ccccc1OC(=O)CCC(=O)OCCCC(F)(F)C(F)(F)F | -4.35
C=CCN(c1ccccc1)S(=O)(=O)c1cccc(C(=O)O)c1 | -12.8
CC(C)CNC(=O)Cn1c(=O)c2c(ncn2CC(C)C)n(Cc2ccccc2)c1=O | 7.42

Incoming: Answer with reported inhibition of CCc1cccc(NC(=O)C(NC(=O)C2CCCCC2)C(C)C)c1 (stereo unspecified)
Outgoing: -6.21

Incoming: Identify inhibition associated with the molecule Cc1ccc(Nc2nc(-c3c(C)nc4ncccn34)cs2)cc1
Outgoing: 6.26

Incoming: Answer with reported inhibition of Cc1nc2ncccn2c1-c1csc(Nc2ccc(O)cc2)n1
Outgoing: 1.06
